These entries and their values trace back to patent US9458120B2.

experimental.system: TREK-1 channel (Rattus norvegicus)
Construct: expressed in transfected cells; host or cells: COS7 (Korean Cell Line Bank), transient transfection with Effectene
procedure.summary: Assay for TREK channel inhibition activity (whole cell patch clamp recording, COS7 cell transfected with GFP-rTREK-1)
Format: cell-based
conditions: Table 2; 100 μM; COS7 cells, GFP-rTREK-1, whole-cell patch clamp
For each entry below, report its block % at 100 μM value.
Answers are plain numbers, in %.

Hi, could you look up block % at 100 μM for each item in my list?
1. C=C[C@H]1C[N@@]2CC[C@H]1C[C@@H]2[C@@H](O)c1ccnc2ccc(OC)cc12 [quinidine, reference compound]
2. O=C(CN1CCN(C[C@H](O)COc2ccc(C(F)(F)F)cc2)CC1)NC1CCCCC1
3. CC(C)Cc1cc(CNC(=O)CN2CCN(C[C@@H](O)COc3ccc(C(F)(F)F)cc3)CC2)nn1-c1ccccc1
4. Cc1ccc(OC[C@@H](O)CN2CCN(Cc3c(F)cccc3Cl)CC2)cc1

33.46
74.61
91.23
71.47

Hi, could you look up block % at 100 μM for each item in my list?
1. C=C[C@H]1C[N@@]2CC[C@H]1C[C@H]2[C@H](O)c1ccnc2ccc(OC)cc12 [quinine, reference compound]
2. Cc1ccc(CNC(=O)CN2CCN(C[C@H](O)COc3ccc(C(F)(F)F)cc3)CC2)cc1
3. CC[C@H]1CN2CC[C@H]1C[C@H]2[C@H](O)c1ccnc2ccc(OC)cc12 [hydroquinine, reference compound]

1: 50.00; 2: 88.17; 3: 49.71

---

experimental.system: α1G T-type calcium channel (Homo sapiens, UniProt O43497)
Sequence (O43497 whole entry): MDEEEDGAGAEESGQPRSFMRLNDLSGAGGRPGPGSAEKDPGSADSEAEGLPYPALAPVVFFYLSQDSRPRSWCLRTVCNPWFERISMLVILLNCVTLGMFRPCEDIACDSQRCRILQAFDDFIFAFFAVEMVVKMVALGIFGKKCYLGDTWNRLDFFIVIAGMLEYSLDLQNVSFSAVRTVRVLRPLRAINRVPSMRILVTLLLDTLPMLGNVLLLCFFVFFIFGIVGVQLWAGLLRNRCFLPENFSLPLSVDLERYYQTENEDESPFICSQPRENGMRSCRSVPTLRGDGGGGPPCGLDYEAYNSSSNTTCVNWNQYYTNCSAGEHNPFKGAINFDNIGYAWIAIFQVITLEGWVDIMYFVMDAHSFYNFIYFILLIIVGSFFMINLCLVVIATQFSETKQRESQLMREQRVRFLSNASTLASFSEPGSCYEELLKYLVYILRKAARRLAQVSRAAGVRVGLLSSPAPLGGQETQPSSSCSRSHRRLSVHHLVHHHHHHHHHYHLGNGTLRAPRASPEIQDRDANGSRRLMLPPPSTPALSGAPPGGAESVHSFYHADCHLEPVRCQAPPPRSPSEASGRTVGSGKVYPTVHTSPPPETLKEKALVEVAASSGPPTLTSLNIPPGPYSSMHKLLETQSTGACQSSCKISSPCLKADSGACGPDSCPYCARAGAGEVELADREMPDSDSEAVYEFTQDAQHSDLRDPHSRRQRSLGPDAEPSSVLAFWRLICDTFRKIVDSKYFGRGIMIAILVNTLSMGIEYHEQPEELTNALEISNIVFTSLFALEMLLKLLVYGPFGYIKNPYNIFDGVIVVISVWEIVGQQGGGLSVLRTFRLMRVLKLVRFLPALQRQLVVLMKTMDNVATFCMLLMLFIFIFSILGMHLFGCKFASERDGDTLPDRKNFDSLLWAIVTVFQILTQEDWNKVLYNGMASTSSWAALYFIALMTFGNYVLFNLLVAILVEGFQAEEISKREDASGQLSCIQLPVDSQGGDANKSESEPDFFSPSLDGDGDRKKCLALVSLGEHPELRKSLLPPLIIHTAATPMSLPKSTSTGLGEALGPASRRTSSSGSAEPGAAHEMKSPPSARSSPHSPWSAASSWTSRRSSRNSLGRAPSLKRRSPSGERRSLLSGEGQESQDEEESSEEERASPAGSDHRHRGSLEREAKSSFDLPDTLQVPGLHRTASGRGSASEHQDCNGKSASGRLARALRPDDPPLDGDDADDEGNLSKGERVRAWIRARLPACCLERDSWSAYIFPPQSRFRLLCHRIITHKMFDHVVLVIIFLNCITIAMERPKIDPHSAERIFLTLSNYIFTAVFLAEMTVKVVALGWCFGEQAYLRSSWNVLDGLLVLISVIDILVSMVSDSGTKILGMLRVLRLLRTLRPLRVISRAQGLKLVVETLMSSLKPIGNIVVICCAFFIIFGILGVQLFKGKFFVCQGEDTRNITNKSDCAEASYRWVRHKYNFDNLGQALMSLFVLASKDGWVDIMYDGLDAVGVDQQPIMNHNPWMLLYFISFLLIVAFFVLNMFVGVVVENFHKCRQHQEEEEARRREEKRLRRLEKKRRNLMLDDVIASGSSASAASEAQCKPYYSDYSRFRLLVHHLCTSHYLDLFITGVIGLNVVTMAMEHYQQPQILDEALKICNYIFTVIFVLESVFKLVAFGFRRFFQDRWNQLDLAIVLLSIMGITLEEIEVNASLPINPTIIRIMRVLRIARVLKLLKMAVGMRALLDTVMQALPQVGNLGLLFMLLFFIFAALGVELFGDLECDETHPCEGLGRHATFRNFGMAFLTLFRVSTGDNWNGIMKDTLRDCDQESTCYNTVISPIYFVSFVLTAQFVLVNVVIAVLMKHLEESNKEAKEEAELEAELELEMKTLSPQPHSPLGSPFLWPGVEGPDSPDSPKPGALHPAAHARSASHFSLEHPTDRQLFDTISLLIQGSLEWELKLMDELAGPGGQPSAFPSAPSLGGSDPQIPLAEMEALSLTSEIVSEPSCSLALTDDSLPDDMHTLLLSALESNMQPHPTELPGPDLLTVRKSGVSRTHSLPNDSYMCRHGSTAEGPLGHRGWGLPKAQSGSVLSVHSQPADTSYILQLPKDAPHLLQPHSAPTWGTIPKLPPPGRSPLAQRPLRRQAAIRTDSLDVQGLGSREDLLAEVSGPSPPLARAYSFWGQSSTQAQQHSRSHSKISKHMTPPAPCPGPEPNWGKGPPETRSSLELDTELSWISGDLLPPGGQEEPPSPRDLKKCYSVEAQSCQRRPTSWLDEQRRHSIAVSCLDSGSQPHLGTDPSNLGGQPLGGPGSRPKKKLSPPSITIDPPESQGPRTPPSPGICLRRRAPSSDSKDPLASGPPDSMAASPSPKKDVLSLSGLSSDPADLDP
procedure.summary: Assay for T-type calcium channel inhibition activity (FDSS6000 calcium imaging, KCl activation)
Assay type: cell-based
conditions: 75 s pre-treatment then KCl 75 mM, HEK293 cells expressing α1G T-type calcium channel and Kir2.1
Experimental: At 12-24 hours before the assay for T-type calcium channel activity, cells of HEK293 cell line (α1G cell line: KCTC 10519BP, GenBank, Korea Research Institute of Bioscience and Biotechnology) which stably express α1G T-type calcium channel and Kir2.1, were sub-cultured in a poly-L-lysine (0.05 mg/ml) treated 96-well plate with the density of 4×10^4 per a well using a 96-well cell dispenser (Titertek). […]
measured.quantity: inhibition
Output should be the measured figure followed by the unit it is expressed in.

Below, each entry is followed by its recorded inhibition result.
compound | experimental.system | inhibition
O[C@@H](COc1ccc(C(F)(F)F)cc1)CN1CCN(Cc2nccn2Cc2ccccc2)CC1 [KKRE10153] | α1G T-type calcium channel (Homo sapiens, UniProt O43497) | 46.9%
Cc1ccc(F)cc1-n1nc(CNC(=O)CN2CCN(C[C@H](O)COc3ccc(F)cc3)CC2)cc1CC(C)C [KKRE10229] | α1G T-type calcium channel (Homo sapiens, UniProt O43497) | 77.6%
O=C(CN1CCN(C[C@H](O)COc2ccc(C(F)(F)F)cc2)CC1)NCc1ccc(C(F)(F)F)cc1 [KKRE10173] | α1G T-type calcium channel (Homo sapiens, UniProt O43497) | 53.6%
O[C@@H](COc1ccc(C(F)(F)F)cc1)CN1CCC(N2CCCC2)CC1 [KKRE10184] | α1G T-type calcium channel (Homo sapiens, UniProt O43497) | 9.54%

Hi, could you look up inhibition for each item in my list?
1. O[C@@H](COc1ccc(C(F)(F)F)cc1)CN1CCC(F)(F)CC1 [KKRE10185]
2. Cc1ccc(OC[C@@H](O)CN2CCN(CC(=O)NCc3ccc(C(F)(F)F)cc3)CC2)cc1 [KKRE10201]

1: 14.8%; 2: 55.4%

Hi, could you look up inhibition for each item in my list?
1. O[C@H](COc1ccc(C(F)(F)F)cc1)CN1CCC(O)(c2ccccc2)CC1 [KKRE10191]
2. O[C@@H](COc1ccc(F)cc1)CN1CCC(N2CCCCC2)CC1 [KKRE10158]

1. 16.8%
2. 6.65%

Hi, could you look up inhibition for each item in my list?
1. Cc1ccc(OC[C@H](O)CN2CCN(CC(=O)NCc3ccccc3)CC2)cc1 [KKRE10196]
2. O[C@@H](COc1ccc(F)cc1)CN1CCC(N2CCOCC2)CC1 [KKRE10156]
3. O[C@H](COc1ccc(C(F)(F)F)cc1)CN1CCC(F)(F)CC1 [KKRE10190]
4. O=C(CN1CCN(CC(O)COc2ccc(C(F)(F)F)cc2)CC1)NC1CCCCC1 (centres unmarked) [KKRE10177]
5. O=C(CN1CCN(C[C@@H](O)COc2ccc(C(F)(F)F)cc2)CC1)NC1CCCCC1 [KKRE10176]

["26%", "5.31%", "35%", "42%", "43.9%"]

Hi, could you look up inhibition for each item in my list?
1. CC(C)Cc1cc(CNC(=O)CN2CCN(C[C@H](O)COc3ccc(F)cc3)CC2)nn1-c1ccccc1 [KKRE10214]
2. Cc1ccc(CNC(=O)CN2CCN(C[C@H](O)COc3ccc(C)cc3)CC2)cc1 [KKRE10199]
3. O[C@@H](COc1ccc(C(F)(F)F)cc1)CN1CCC(N2CCCCC2)CC1 [KKRE10183]
4. Cc1ccccc1-n1nc(CNC(=O)CN2CCN(C[C@@H](O)COc3ccc(F)cc3)CC2)cc1CC(C)C [KKRE10225]

["77.5%", "33.9%", "12%", "81.1%"]

---

experimental.system: TREK-1 channel (Rattus norvegicus, UniProt Q920B6)
Construct: expressed in transfected cells; host or cells: COS7 (Korean Cell Line Bank), transient transfection with Effectene
Sequence (Q920B6 whole entry): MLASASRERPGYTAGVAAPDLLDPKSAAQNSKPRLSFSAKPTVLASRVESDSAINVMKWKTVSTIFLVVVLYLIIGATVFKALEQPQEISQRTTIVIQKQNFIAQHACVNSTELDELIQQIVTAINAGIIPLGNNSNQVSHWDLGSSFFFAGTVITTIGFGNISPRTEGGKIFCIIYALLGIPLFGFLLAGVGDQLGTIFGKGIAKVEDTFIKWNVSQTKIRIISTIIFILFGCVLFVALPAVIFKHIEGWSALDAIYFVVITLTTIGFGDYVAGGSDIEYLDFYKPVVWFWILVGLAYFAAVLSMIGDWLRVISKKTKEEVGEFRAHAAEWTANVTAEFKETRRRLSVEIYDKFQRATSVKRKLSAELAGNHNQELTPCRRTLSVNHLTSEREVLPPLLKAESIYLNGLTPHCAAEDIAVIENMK
procedure.summary: Assay for TREK channel inhibition activity (whole cell patch clamp recording, COS7 cell transfected with GFP-rTREK-1)
Assay type: cell-based
conditions: COS-7, Table 3 (value ± spread); 101 μM [sic]; COS7 cells, GFP-rTREK-1, whole-cell patch clamp; read-out: block % at 101 μM
measured.quantity: inhibition at 101 µM (%)
Give bare numbers, in %.

Below, each entry is followed by its recorded inhibition at 101 µM result.
structure.string | inhibition at 101 µM, %
O[C@H](COc1ccc(F)cc1)CN1CCC(N2CCCCC2)CC1 | 13.4
O=C(CN1CCN(C[C@H](O)COc2ccc(C(F)(F)F)cc2)CC1)NC1CCCCC1 | 18.1
CC(C)Cc1cc(CNC(=O)CN2CCN(C[C@@H](O)COc3ccc(C(F)(F)F)cc3)CC2)nn1-c1ccc(F)cc1 | 50.1
O[C@@H](COc1ccc(C(F)(F)F)cc1)CN1CCC(N2CCCC2)CC1 | 37.4
O=C(CN1CCN(C[C@H](O)COc2ccccc2)CC1)NCc1ccccc1 | 38
CC(C)Cc1cc(CNC(=O)CN2CCN(C[C@H](O)COc3ccc(C(F)(F)F)cc3)CC2)nn1-c1cc(Cl)cc(Cl)c1 | 41.4
O[C@@H](COc1ccc(F)cc1)CN1CCC(O)(c2ccccc2)CC1 | 19.9
O=C(CN1CCN(C[C@@H](O)COc2ccc(C(F)(F)F)cc2)CC1)Nc1ccc(F)cc1 | 35.2
O[C@@H](COc1ccc(C(F)(F)F)cc1)CN1CCC(N2CCOCC2)CC1 | 46.6
O[C@@H](COc1ccc(C(F)(F)F)cc1)CN1CCN(Cc2nccn2Cc2ccccc2)CC1 | 52.1

Hi, could you look up inhibition at 101 µM for each item in my list?
1. O[C@H](COc1ccc(C(F)(F)F)cc1)CN1CCC(N2CCOCC2)CC1
2. O=C(CN1CCN(C[C@H](O)COc2ccccc2)CC1)NCc1ccc(C(F)(F)F)cc1

[49.2, 53]

Hi, could you look up inhibition at 101 µM for each item in my list?
1. Cc1ccc(CNC(=O)CN2CCN(C[C@H](O)COc3ccc(C(F)(F)F)cc3)CC2)cc1
2. CC(C)Cc1cc(CN2CCN(C[C@H](O)COc3ccc(F)cc3)CC2)nn1-c1ccccc1
3. Cc1ccc(OC[C@H](O)CN2CCN(CC(=O)NCc3ccc(C(F)(F)F)cc3)CC2)cc1

1. 37.6
2. 21.7
3. 30.9

---

experimental.system: TREK-1 channel (Rattus norvegicus)
Construct: expressed in transfected cells; host or cells: COS7 (Korean Cell Line Bank), transient transfection with Effectene
procedure.summary: Assay for TREK channel inhibition activity (whole cell patch clamp recording, COS7 cell transfected with GFP-rTREK-1)
Type: cell-based
conditions: COS-7, Table 3 (value ± spread); 101 μM [sic]; COS7 cells, GFP-rTREK-1, whole-cell patch clamp; read-out: block % at 101 μM
measured.quantity: inhibition at 101 µM (%)
Answers are plain numbers, in %.

Below, each entry is followed by its recorded inhibition at 101 µM result.
molecule | measured.quantity | experimental.value
O[C@@H](COc1ccc(F)cc1)CN1CCC(F)(F)CC1 [KKRE10178] | inhibition at 101 µM | 66
O=C(CN1CCN(C[C@H](O)COc2ccc(C(F)(F)F)cc2)CC1)NCc1ccc(C(F)(F)F)cc1 [KKRE10173] | inhibition at 101 µM | 63.2

Sample COc1cccc(C2CCN(C[C@@H](O)COc3ccc(F)cc3)CC2)c1 [KKRE10162] — what was its inhibition at 101 µM? 52.5
